# Tested on: xanthine oxidase
# measurement.notes: Enzyme assay: xanthine oxidase reduction (disappearance of the nitro compound, UV/Visible 326 nm)
# Assay type: biochemical
# experimental.parameters: hypoxanthine, pH 7.4, 0.25 μMoles nitro compound
assay.metric: half life (enzyme assay) (min)

• COCC(O)Cn1ccnc1[N+](=O)[O-] (centres unmarked) [Misonidazole, reference compound] = 45

A. O=[N+]([O-])c1cn(Cc2ccc(B(O)O)cc2)cn1
B. O=[N+]([O-])c1nccn1CC=CB(O)O
C. O=[N+]([O-])c1nccn1CCc1ccc(B(O)O)cc1
D. O=[N+]([O-])c1nccn1Cc1ccc(B(O)O)cc1
Query: Order the records, beginning with the lowest half life (enzyme assay) and ending with the highest. Write the labels in rank order as requested.
Response: D, B, C, A
(D: 11 min, B: 24 min, C: 42.5 min, A: 95 min)

---

# measurement.notes: Electrochemical peak potential (cathodic) in water vs. saturated calomel electrode
# Format: physicochemical
# experimental.parameters: cathodic peak potential in water vs. saturated calomel electrode (Table 3)
assay.metric: Epc(Aqueous) (V)

The examples below pair each entry with its known result.
* O=[N+]([O-])c1nccn1CCc1ccc(B(O)O)cc1 [BPhEtNO2] | -0.30
* O=[N+]([O-])c1cn(Cc2ccc(B(O)O)cc2)cn1 [BB4NO2, 1-(4-Nitroimidazole)-benzylboronic acid] | -0.50
* COCC(O)Cn1ccnc1[N+](=O)[O-] (centres unmarked) [Misonidazole, reference compound] | -0.33

I. O=[N+]([O-])c1nccn1CC=CB(O)O [BPropeneNO2]
II. Cc1ncc([N+](=O)[O-])n1CCO [Metronidazole, reference compound]
Query: Could you kindly indicate whether I or II has the higher Epc(Aqueous) value? The response must carry the label of the picked entry.
Response: I
(I: -0.30 V, II: -0.46 V)

---

# measurement.notes: Cyclic voltammetry in DMF (peak potential vs. Ag/AgNO3)
# Format: physicochemical
# experimental.parameters: cathodic peak potential in DMF vs. Ag/AgNO3 (Table 3)
assay.metric: Epc(DMF) (V)

- O=[N+]([O-])c1cn(Cc2ccc(B(O)O)cc2)cn1 [BB4NO2, 1-(4-Nitroimidazole)-benzylboronic acid]: -1.80
- Cc1ncc([N+](=O)[O-])n1CCO [Metronidazole, reference compound]: -1.62
- COCC(O)Cn1ccnc1[N+](=O)[O-] (centres unmarked) [Misonidazole, reference compound]: -1.49
- O=[N+]([O-])c1nccn1CC=CB(O)O [BPropeneNO2]: -1.56
- O=[N+]([O-])c1nccn1CCc1ccc(B(O)O)cc1 [BPhEtNO2]: -1.53
